- Measurement Protocol: Half life in dog at 10 mg/kg, po
- Format: ADME, organism-based, Canis lupus familiaris
- Design: dose 10 mg/kg, route oral
- Recorded Conditions: in vivo
Outcome Measure: half-life (min)

INSERT INTO assay_data (item_smiles, data_value) VALUES
  ('O=C(NO)c1cnc(N2C[C@@H]3[C@H](C2)[C@H]3NCc2ccc3cc(F)ccc3n2)nc1', 54);

====

- Measurement Protocol: Aqueous solubility of the compound in PBS at pH 7.4
- Format: physicochemical
Outcome Measure: solubility

INSERT INTO results (item_smiles, data_value) VALUES
  ('O=C(NO)c1cnc(N2C[C@@H]3[C@H](C2)[C@H]3NCc2ccc3ccccc3c2)nc1', '12 µg/mL'),
  ('O=C(NO)c1cnc(N2C[C@@H]3[C@H](C2)[C@H]3NS(=O)(=O)c2ccc3ccccc3c2)nc1', '34 µg/mL'),
  ('O=C(NO)c1cnc(N2C[C@@H]3[C@H](C2)[C@H]3NCc2ccc3cc(F)ccc3n2)nc1', '1 µg/mL');

====

- Measurement Protocol: Drug level in tumor of BALB/c mouse at 75 mg/kg, po administered daily for 14 days
- Assay type: ADME, organism-based, Neoplasm
- Design: dose 75 mg/kg, route oral
- Recorded Conditions: read-out: Drug uptake
Outcome Measure: concentration at 336 h (ng/mL)

INSERT INTO results (item_smiles, data_value) VALUES
  ('O=C(NO)c1cnc(N2C[C@@H]3[C@H](C2)[C@H]3NCc2ccc(Cl)cc2)nc1', 28);

====

A collection of compounds and their measured AUC(0-t)
- Measurement Protocol: AUC (0 to t) in spleen of CD1 mouse at 3 mg/kg, po
- Format: ADME, organism-based
- Parameters: dose 3 mg/kg, route oral
Outcome Measure: AUC(0-t) (ng·h/mL)

INSERT INTO assay_data (compound, data_value) VALUES
  ('O=C(NO)c1cnc(N2C[C@@H]3[C@H](C2)[C@H]3NCc2ccc3ccccc3c2)nc1', 145),
  ('O=C(NO)c1cnc(N2C[C@@H]3[C@H](C2)[C@H]3NCc2ccc(Oc3ccccc3)cc2)nc1', 219),
  ('O=C(NO)c1cnc(N2C[C@@H]3[C@H](C2)[C@H]3NCc2ccc3cc(F)ccc3n2)nc1 [NANATINOSTAT]', 775),
  ('O=C(NO)c1cnc(N2C[C@@H]3[C@H](C2)[C@H]3NCc2ccc3ccccc3n2)nc1', 294),
  ('O=C(NO)c1cnc(N2C[C@@H]3[C@H](C2)[C@H]3NCc2ccc(OC(F)(F)F)cc2)nc1', 251),
  ('O=C(NO)c1cnc(N2C[C@@H]3[C@H](C2)[C@H]3NCc2ccc(Cl)cc2)nc1', 436);

====

- Measurement Protocol: Oral bioavailability in dog at 10 mg/kg
- Format: ADME, organism-based, Canis lupus familiaris
- Recorded Conditions: in vivo
Outcome Measure: bioavailability (%)

INSERT INTO measurements (item_smiles, outcome_measure, data_value) VALUES
  ('O=C(NO)c1cnc(N2C[C@@H]3[C@H](C2)[C@H]3NCc2ccc(Cl)cc2)nc1', 'bioavailability', 56),
  ('O=C(NO)c1cnc(N2C[C@@H]3[C@H](C2)[C@H]3NCc2ccc3cc(F)ccc3n2)nc1', 'bioavailability', 40);

====

- Measurement Protocol: Clearance in human liver microsomes assessed as compound remaining after 30 mins
- Assay type: ADME, Microsome
- Recorded Conditions: read-out: Activity
Outcome Measure: remaining at 0.5 h (%)

INSERT INTO results (item_smiles, outcome_measure, unit_name, data_value) VALUES
  ('O=C(NO)c1cnc(N2C[C@@H]3[C@H](C2)[C@H]3NCc2ccc3ccccc3c2)nc1', 'remaining at 0.5 h', '%', 40),
  ('O=C(NO)c1cnc(N2C[C@@H]3[C@H](C2)[C@H]3NCc2ccc3cc(F)ccc3n2)nc1', 'remaining at 0.5 h', '%', 21),
  ('O=C(NO)c1cnc(N2C[C@@H]3[C@H](C2)[C@H]3NCc2ccc(Cl)cc2)nc1', 'remaining at 0.5 h', '%', 38),
  ('O=C(NO)c1cnc(N2C[C@@H]3[C@H](C2)[C@H]3NS(=O)(=O)c2ccc3ccccc3c2)nc1', 'remaining at 0.5 h', '%', 43);
